Test: growth inhibition of CRL1545 osteosarcoma cells, cell-based, cisplatin and BGB IC20 combos (AID 1671464);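 further: cells exposed to compound for 96 hours before readout; 0% = vehicle DMSO and 100% = high DMSO killing control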
Settings: single agent, at 0.05 µM, stronger effect = higher value
Observation Type: inhibition

Compound | Reported Measurement
NC(=O)c1ncn(C2OC(CO)C(O)C2O)n1 (configuration not stated) | 17.7%
O=C(Nc1ccncc1)c1cc([N+](=O)[O-])ccc1Cl | -34.7%
CO[C@H]1/C=C/O[C@@]2(C)Oc3c(C)c(O)c4c(O)c(c(C=NN5CCN(C)CC5)c(O)c4c3C2=O)NC(=O)/C(C)=C\C=C\[C@H](C)[C@H](O)[C@@H](C)[C@@H](O)[C@@H](C)[C@H](OC(C)=O)[C@@H]1C | 6.37%
O=c1[nH]c(-c2ccc(C(F)(F)F)cc2)nc2c1CSCC2 | -54.3%
O=c1ncccn1[C@@H]1O[C@H](CO)[C@@H](O)[C@H]1O | -12.6%
O=C(Nc1ccccc1)c1ccccc1O | 12.8%

Query string: Given the compound `CCc1c2c(nc3ccc(O)cc13)-c1cc3c(c(=O)n1C2)COC(=O)[C@]3(O)CC` , write its reported inhibition.
Result string: 16.8%
